# System: IGROV1 ovarian
# Method: NCI-60 one-dose screen, 48 h (100 = growth as untreated, 0 = no growth, -100 = all killed)
# Condition details: 10 µM
# Description: Growth inhibition of the IGROV1 human tumor cell line is measured as a screen for anti-cancer activity. Cells are grown in 96 well plates and exposed to the test compound for 48 hours. Compounds are tested at a single concentration, which is 10^-5 M for most compounds. The reported endpoint is percent growth (GI% or GIPRCNT), where numbers from 0 - 100% represent growth inhibition, and numbers from -100% - 0 represent cell death. For example, a value of 40 represents 60% growth inhibition. […]
About 83,000 compounds went through this panel and 20% of them were active in at least one assay; those are over-represented in the sample as a whole.
This listing pairs compounds with measured growth.
Endpoint label: growth (%)

{"columns": ["Compound", "Recorded result"],
 "data": [
  ["C[C@@H]1C[C@@H]([C@H](O)CC2CC(=O)NC(=O)C2)C(=O)[C@@H](C)C1", 11.3],
  ["N#CCc1ccccc1", 115],
  ["Cc1cc(C)c(C[N+](C)(C)C)c(C)c1C", 7.5],
  ["CC[C@@]1(O)C[C@H](OC2CC(N(C)C)C(O)C(C)O2)c2c(cc3c(c2O)C(=O)c2c(O)ccc(O)c2C3=O)[C@H]1C(=O)OC (stereo partly drawn)", -68.3],
  ["NC(=O)c1cc([N+](=O)[O-])c(Cl)c([N+](=O)[O-])c1", 102],
  ["O=C1CCC(=O)N1SC(Cl)(Cl)Cl", 92.6],
  ["O=C(CCl)Nc1ccc(Cl)cc1", -4.08],
  ["COC(=O)C1C(O)C(C)C(O)C(C)/C=C\\C=C(C)C(=O)Nc2c(C)c(OC(C)=O)c3c(c2O)C(=O)C(C)=C2OCOC(=C23)C(C)=CC(C)(O)C(O)C(C)C1O (stereo not drawn)", 58.7],
  ["CN(CCCl)c1ccc(/C=C/C2=[N+](C)c3ccccc3C2(C)C)cc1", 35.1],
  ["CS(=N)(=O)CCC(N)C(=O)O (stereo not drawn)", 87.5],
  ["COc1ccccc1[As]=[As]c1ccccc1OC (stereo not drawn)", -76.9],
  ["[Cl][Sn]([c]1ccccc1)([c]1ccccc1)[c]1ccccc1", -76.8],
  ["O=C1C(=O)c2ccccc2-c2ccccc21", -61.7],
  ["O=C(O)c1cc(Cc2ccc(O)c(C(=O)O)c2)ccc1O (tested in a mixture with another compound)", -81.4],
  ["COc1ccccc1/C=C/[N+](=O)[O-]", 53],
  ["NNc1ccccc1", 88.4],
  ["COc1cc2c(cc1OC)C13CCN4CC5=CCOC6CC(=O)N2C1C6C5CC43 (stereo not drawn)", 106],
  ["CN(C)CC1(N)C(=O)NC(=O)NC1=O", 108],
  ["Oc1c(I)cc(I)cc1I", 112],
  ["COc1cc(/C=C/[N+](=O)[O-])cc(OC)c1OC", -22],
  ["O=[N+]([O-])c1cc[n+]([O-])c2ccccc12", -24.3],
  ["C=C1C(=O)O[C@@H]2C[C@@H](C)[C@@H]3C=CC(=O)[C@@]3(C)[C@@H](O)[C@H]12", -90.5],
  ["COc1ccc(/C=C(\\C)[N+](=O)[O-])cc1OC", -18.5]
]}
